Experiment: SPF mice feeding experiment (high-fat diet)
Type: in vivo, C57/B16J mice
Settings: intragastric 0.75 mg-3 mg/Kg once/day, after 8 weeks
property label: body weight decrease compared with the HFD group (%)
Could you give me the number in %? Just the number is fine.

*Q* Value lookup for body weight decrease compared with the HFD group; key = RTRYCRTGR [D3]
*A* 12.06

*Q* What value of body weight decrease compared with the HFD group has been recorded for this entry: ATRYCRTGR [D6]
*A* 3.78

*Q* Item under review: ATCYRRTGR [D4] . Reported body weight decrease compared with the HFD group?
*A* 3.55

*Q* I have this sequence here, GTCYCRTGR [D7] , and I need its recorded body weight decrease compared with the HFD group.
*A* 8.08

*Q* Give its body weight decrease compared with the HFD group value. Item: GTRYKRTGR [D8]
*A* 10.07

*Q* Looking for the measured body weight decrease compared with the HFD group of RTRYKRTGR [D1] , can you help?
*A* 11.62

*Q* Would you kindly share the measured body weight decrease compared with the HFD group for GTCYKRTGR [D2] ?
*A* 9.45

*Q* Which body weight decrease compared with the HFD group value is on record for GTRYCRTGR [D10] ?
*A* 11.06

*Q* Which value of body weight decrease compared with the HFD group has been reported for RTCYCRTGR [D9] in the records?
*A* 11.09

*Q* Which body weight decrease compared with the HFD group is listed for RTCYKRTGR [D5] ?
*A* 11.8

Origin of values: patent US20240376148A1
